Cited source for all entries: patent US5091524A

TARGET_UNDER_TEST: trehalase (Sigma No. T 8778) (Sus scrofa, UniProt I3LIR5)
Sequence (I3LIR5 24-583): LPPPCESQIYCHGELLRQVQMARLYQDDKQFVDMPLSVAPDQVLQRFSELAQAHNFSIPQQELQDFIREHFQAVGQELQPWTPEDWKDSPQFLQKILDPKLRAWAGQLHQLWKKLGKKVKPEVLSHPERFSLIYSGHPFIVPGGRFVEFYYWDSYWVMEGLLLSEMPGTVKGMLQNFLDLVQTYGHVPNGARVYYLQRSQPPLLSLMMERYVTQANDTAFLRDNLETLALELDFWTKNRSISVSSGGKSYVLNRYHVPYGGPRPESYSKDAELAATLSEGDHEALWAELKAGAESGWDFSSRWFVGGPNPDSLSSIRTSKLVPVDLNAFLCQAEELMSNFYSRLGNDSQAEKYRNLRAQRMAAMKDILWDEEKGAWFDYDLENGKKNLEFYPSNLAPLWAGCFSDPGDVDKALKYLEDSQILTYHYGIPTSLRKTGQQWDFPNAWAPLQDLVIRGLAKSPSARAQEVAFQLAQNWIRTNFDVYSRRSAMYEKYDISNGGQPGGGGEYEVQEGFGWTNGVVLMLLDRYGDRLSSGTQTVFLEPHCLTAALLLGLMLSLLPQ
ENDPOINT_LABEL: pKi
Remember, pKi is on a log scale: it is -log10 of the molar concentration.

Query pKi for OCC1=C[C@H](N[C@H]2CO[C@H](CO)[C@@H](O)[C@@H]2O)[C@H](O)[C@@H](O)[C@@H]1O
6.74
